Catalogue of ΔTm readings, one per entry.
- Tested on: Salmonella enterica
- ASSAY NAME: Binding affinity to Salmonella enterica Threonyl-tRNA synthetase assessed as change in melting temperature at 0.5 mM incubated for 10 mins by SYPRO orange dye-based thermal shift assay
Entry rule: numbers only, all in °C.

INPUT: State its ΔTm on Salmonella enterica: C=CCN[C@H](C(=O)NC/C=C/Cn1cnc2cc(Cl)c(Cl)cc2c1=O)[C@@H](C)O
OUTPUT: 22.1

* * *

- Test system: Salmonella enterica
- ASSAY NAME: Inhibition of Salmonella enterica Threonyl-tRNA synthetase assessed as reduction in aminoacylation activity at 100 uM using L-threonine as substrate incubated for 3 hrs by Kinase-glo luminescence assay relative to control
MEASURED METRIC: inhibition (%)
Use % as the unit, but write only the number.

Example results:
CC(C)N[C@H](C(=O)NC/C=C/Cn1cnc2cc(Cl)c(Cl)cc2c1=O)[C@@H](C)O :: 63
CCN[C@H](C(=O)NC/C=C/Cn1cnc2cc(Cl)c(Cl)cc2c1=O)[C@@H](C)O :: 100
O=C(CC1NCCCC1O)Cn1cnc2cc(Br)c(Cl)cc2c1=O (configuration not stated) :: 4
CC(C)(O)[C@H](N)C(=O)NC/C=C/Cn1cnc2cc(Cl)c(Cl)cc2c1=O :: 0
N[C@@H](CO)C(=O)NC/C=C/Cn1cnc2cc(Cl)c(Cl)cc2c1=O :: 2
C[C@@H](O)[C@H](NCCF)C(=O)NC/C=C/Cn1cnc2cc(Cl)c(Cl)cc2c1=O :: 99

// below: inhibition requested for another compound
INPUT: Recorded inhibition for C[C@H](O)[C@@H](N)C(=O)NC/C=C/Cn1cnc2cc(Cl)c(Cl)cc2c1=O with Salmonella enterica, please?
OUTPUT: 6

* * *

ΔTm overview
- Tested on: Salmonella enterica
- ASSAY NAME: Binding affinity to Salmonella enterica Threonyl-tRNA synthetase assessed as change in melting temperature at 0.5 mM incubated for 10 mins by SYPRO orange dye-based thermal shift assay
Give just the numeric value; °C need not be written.

Recorded results for 3 molecules are shown here.
CCN[C@H](C(=O)NC/C=C/Cn1cnc2cc(Cl)c(Cl)cc2c1=O)[C@@H](C)O :: 22.5
O=C1CC[C@@H](C(=O)NC/C=C/Cn2cnc3cc(Cl)c(Cl)cc3c2=O)N1 :: -0.4
O=C(CC1NCCCC1O)Cn1cnc2cc(Br)c(Cl)cc2c1=O (configuration not stated) :: -1.5

INPUT: Fill in: ΔTm of C[C@@H](O)[C@H](NCCF)C(=O)NC/C=C/Cn1cnc2cc(Cl)c(Cl)cc2c1=O is ___
OUTPUT: 19.1

INPUT: I have this molecule here, N[C@@H](CO)C(=O)NC/C=C/Cn1cnc2cc(Cl)c(Cl)cc2c1=O , and I need its recorded ΔTm.
OUTPUT: 0.6

INPUT: # query: ΔTm of entry CCO[C@H](C)[C@H](N)C(=O)NC/C=C/Cn1cnc2cc(Cl)c(Cl)cc2c1=O
OUTPUT: 0.2

INPUT: So what does the record say about ΔTm for CC(C)(O)[C@H](N)C(=O)NC/C=C/Cn1cnc2cc(Cl)c(Cl)cc2c1=O ?
OUTPUT: 0.9

INPUT: I have this molecule here, C[C@@H](O)[C@H](NCC#N)C(=O)NC/C=C/Cn1cnc2cc(Cl)c(Cl)cc2c1=O , and I need its recorded ΔTm.
OUTPUT: 18.8

INPUT: # ΔTm lookup, item O=C1CC[C@H](C(=O)NC/C=C/Cn2cnc3cc(Cl)c(Cl)cc3c2=O)N1
OUTPUT: -0.2

INPUT: Bench note: what ΔTm did C[C@H](O)[C@@H](N)C(=O)NC/C=C/Cn1cnc2cc(Cl)c(Cl)cc2c1=O show?
OUTPUT: 0.6

INPUT: # get_value(readout='ΔTm', item= CN[C@H](C(=O)NC/C=C/Cn1cnc2cc(Cl)c(Cl)cc2c1=O)[C@@H](C)O )
OUTPUT: 28.4

INPUT: Recorded ΔTm of CC(C)N[C@H](C(=O)NC/C=C/Cn1cnc2cc(Cl)c(Cl)cc2c1=O)[C@@H](C)O , please.
OUTPUT: 14.1
